# assayInfo: Toxicity liver stage against HepG2, at 10uM
# Format: cell-based
# Set-up: test concentration 10 uM, cell line HepG2-A16-CD81EGFP
# experimentalContext: human, HepG2-A16-CD81EGFP cells; read-out: INHIBITION
Kindly supply the reported cytotoxicity at 10 µM values for the records listed here.
Give bare numbers, in %.

Check out these entries, answers already filled in.
compound	readoutLabel	observedResult
COCCNC(=O)[C@@H]1CN(c2ncccn2)C[C@H]2OCC[C@H]21	cytotoxicity at 10 µM	-68.4
Cc1cc2cc(CNC(=O)c3cnn4c3OCCC4)ccc2[nH]1	cytotoxicity at 10 µM	6.59
COCc1cc(NCCc2ccc(S(N)(=O)=O)cc2)n2nccc2n1	cytotoxicity at 10 µM	6.45

I would be grateful if you could provide cytotoxicity at 10 µM for each of the following entries.
1. CC(O)(CN1CCC(O)CC1)c1cccc(C(F)(F)F)c1 (centres undefined)
2. Cc1nc(C2CCCN2CCc2cccs2)no1 (centres undefined)
3. Cc1cnc2c(c1NCc1ccncc1)c(=O)n(C)c(=O)n2C
4. c1ccc(OCCNc2ncnc3sc4c(c23)CCNC4)cc1

1. -0.0552
2. 10.4
3. -10.7
4. 45.4

I would be grateful if you could provide cytotoxicity at 10 µM for each of the following entries.
1. COc1ccc(CNC2CCN(c3ccccc3)C2)cc1O (centres undefined)
2. Nc1ccc(C(=O)N2CCCC(c3nccn3Cc3cscn3)C2)cn1 (centres undefined)
3. CC(=O)N[C@@H]1CN(C(=O)c2cc(C)oc2C)C[C@H]1c1ccc(C)o1
4. CN1C(=O)CO[C@H]2CN(C(=O)c3ccc4c(c3)CCCC4)C[C@@H]21
5. CCOCC1CN(Cc2ccsc2)Cc2cnn(C)c21 (centres undefined)
6. O=C(CN1CCCC1c1nc2cc(F)ccc2[nH]1)NCc1ccccn1 (centres undefined)

[8.63, -4.92, -10.6, 5.45, 7.72, -0.748]

I would be grateful if you could provide cytotoxicity at 10 µM for each of the following entries.
1. CN1C(=O)CCCC12CCCN(C(=O)c1cccc(C(F)(F)F)c1)C2 (centres undefined)
2. Cc1ccc(NCc2nc3n(n2)CCCCC3)c(C)c1

[4.65, 4.7]

I would be grateful if you could provide cytotoxicity at 10 µM for each of the following entries.
1. CCCc1cnc(C)nc1N1CCC(Cc2cccc(C(N)=O)c2)C1 (centres undefined)
2. C[C@@H]1C(=O)NC[C@H]2CN(Cc3ccsc3)C[C@H]21
3. COc1ccccc1N1CCN(C(=O)CCn2ccc(C)n2)CC1
4. COC[C@@H]1CCC[C@@]12CN(Cc1ccco1)CCO2
5. CC(C)NC[C@H]1COCc2nc3cccnc3n21
6. Cc1ccc(CNC2CCCc3c2cnn3C)s1 (centres undefined)
7. CN(Cc1cccc(-n2cccn2)c1)C(=O)c1cccc(N(C)C)c1
8. O=C(C1CCC1)N1CCO[C@@H]2CNC[C@@H]21

1. 3.52
2. 4.22
3. -3.24
4. 2.03
5. -5.38
6. -0.987
7. -0.809
8. 1.44

Please report the recorded cytotoxicity at 10 µM for Cn1ccnc1CN1CCCN(C(=O)COCC2CC2)CC1 .
-11.8
